# Measurement description: In vitro metabolic stability in rat brain homogenates
# Type: in vitro ADME
# Stated conditions: 10 μM, 37° C., 0 hour to 1 hour, n=3
# Procedure: In vitro metabolic stability assessment was performed using brain homogenates. For the brain homogenates washed tissues were diluted 10-fold in 0.1-M potassium phosphate buffer and homogenized using a probe sonicator. […] Disappearance of the intact compound and release of Testosterone were measured using liquid chromatography tandem mass spectrometry (LC-MS; full scan mode). The metabolic stability of prodrugs (n=3) was evaluated using rat brain homogenates. […]
Property name: stability in rat brain homogenate

Solved cases below.
CN(C)CC(=O)NCC(=O)O[C@H]1CC[C@H]2[C@@H]3CCC4=CC(=O)CC[C@]4(C)[C@H]3CC[C@]12C [Prodrug P8] : stable
C[C@]12CC[C@H]3[C@@H](CCC4=CC(=O)CC[C@@]43C)[C@@H]1CC[C@@H]2OC(=O)C(Cl)Cl [Prodrug P7] : moderately stable
C[C@]12CC[C@H]3[C@@H](CCC4=CC(=O)CC[C@@]43C)[C@@H]1CC[C@@H]2OC(=O)CC[C@H](N)C(=O)O [Prodrug P14] : stable
CC(=O)N[C@@H](CCC(=O)O[C@H]1CC[C@H]2[C@@H]3CCC4=CC(=O)CC[C@]4(C)[C@H]3CC[C@]12C)C(=O)O [Prodrug P13] : stable
C[C@]12CC[C@H]3[C@@H](CCC4=CC(=O)CC[C@@]43C)[C@@H]1CC[C@@H]2OC(=O)CNC(=O)CN [Prodrug P10] : moderately stable
CN1CCN(CC(=O)O[C@H]2CC[C@H]3[C@@H]4CCC5=CC(=O)CC[C@]5(C)[C@H]4CC[C@]23C)CC1 [Prodrug P5] : stable

Give the reported stability in rat brain homogenate for this molecule. CN(C)CC(=O)O[C@H]1CC[C@H]2[C@@H]3CCC4=CC(=O)CC[C@]4(C)[C@H]3CC[C@]12C [Prodrug P3] moderately stable

Note stability in rat brain homogenate for the molecule shown: CN(C)CC(=O)N[C@@H](Cc1ccccc1)C(=O)O[C@H]1CC[C@H]2[C@@H]3CCC4=CC(=O)CC[C@]4(C)[C@H]3CC[C@]12C [Prodrug P12] stable

Look up and report measured stability in rat brain homogenate for this entry: C[C@]12CC[C@H]3[C@@H](CCC4=CC(=O)CC[C@@]43C)[C@@H]1CC[C@@H]2OC(=O)CN1CCOCC1 [Prodrug P6] stable

Answer with the recorded stability in rat brain homogenate of CC(C)C[C@H](NC(=O)CN(C)C)C(=O)O[C@H]1CC[C@H]2[C@@H]3CCC4=CC(=O)CC[C@]4(C)[C@H]3CC[C@]12C [Prodrug P11] only. stable

Recall and state the measured stability in rat brain homogenate for CN(C)CC(=O)NCC(=O)NCC(=O)O[C@H]1CC[C@H]2[C@@H]3CCC4=CC(=O)CC[C@]4(C)[C@H]3CC[C@]12C [Prodrug P9] . stable

----------
# Stated conditions: female rats, IN, 1.1 mg/kg equivalent of Testosterone, 1h post dose
Property name: levels of testosterone release

CN(C)CC(=O)NCC(=O)O[C@H]1CC[C@H]2[C@@H]3CCC4=CC(=O)CC[C@]4(C)[C@H]3CC[C@]12C [Prodrug P8] : low levels
CN1CCN(CC(=O)O[C@H]2CC[C@H]3[C@@H]4CCC5=CC(=O)CC[C@]5(C)[C@H]4CC[C@]23C)CC1 [Prodrug P5] : low levels
C[C@]12CC[C@H]3[C@@H](CCC4=CC(=O)CC[C@@]43C)[C@@H]1CC[C@@H]2OC(=O)CC[C@H](N)C(=O)O [Prodrug P14] : low levels
